Cited source: ChEMBL document CHEMBL2439990

- study.target: Transient receptor potential cation channel subfamily M member 8 (Homo sapiens, UniProt Q7Z2W7)
- Sequence (Q7Z2W7 whole entry, looked up): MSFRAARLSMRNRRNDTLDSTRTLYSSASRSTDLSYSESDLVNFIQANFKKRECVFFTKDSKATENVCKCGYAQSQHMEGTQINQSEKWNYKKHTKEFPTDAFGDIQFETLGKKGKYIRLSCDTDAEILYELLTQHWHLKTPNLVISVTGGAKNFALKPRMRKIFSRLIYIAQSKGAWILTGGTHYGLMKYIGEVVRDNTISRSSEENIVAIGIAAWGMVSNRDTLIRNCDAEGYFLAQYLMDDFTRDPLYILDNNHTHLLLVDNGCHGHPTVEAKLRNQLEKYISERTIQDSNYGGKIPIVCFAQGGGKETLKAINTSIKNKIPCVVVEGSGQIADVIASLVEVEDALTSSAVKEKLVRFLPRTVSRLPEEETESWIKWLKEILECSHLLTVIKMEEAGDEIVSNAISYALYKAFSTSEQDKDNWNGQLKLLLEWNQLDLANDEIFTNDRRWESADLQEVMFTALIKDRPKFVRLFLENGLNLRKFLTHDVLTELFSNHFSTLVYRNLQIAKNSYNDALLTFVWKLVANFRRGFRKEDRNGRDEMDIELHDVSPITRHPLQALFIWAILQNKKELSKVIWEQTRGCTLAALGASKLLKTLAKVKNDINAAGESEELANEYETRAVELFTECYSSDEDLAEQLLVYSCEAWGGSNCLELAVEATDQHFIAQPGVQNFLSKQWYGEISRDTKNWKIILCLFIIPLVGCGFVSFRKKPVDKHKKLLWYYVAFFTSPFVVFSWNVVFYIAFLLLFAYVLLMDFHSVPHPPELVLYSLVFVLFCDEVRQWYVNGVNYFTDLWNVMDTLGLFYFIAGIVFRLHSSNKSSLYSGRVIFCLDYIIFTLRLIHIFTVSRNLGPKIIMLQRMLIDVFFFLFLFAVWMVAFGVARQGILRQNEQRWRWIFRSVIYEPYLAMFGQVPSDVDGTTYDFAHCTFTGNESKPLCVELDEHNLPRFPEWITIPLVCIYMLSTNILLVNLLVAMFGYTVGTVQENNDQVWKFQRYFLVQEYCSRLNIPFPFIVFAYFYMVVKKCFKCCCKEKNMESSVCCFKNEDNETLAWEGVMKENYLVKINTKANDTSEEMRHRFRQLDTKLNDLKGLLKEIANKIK
- test.description: Inhibition of human TRPM8 (unknown origin) expressed in HEK293 cells assessed as inhibition of WS12-induced Ca2+ elevation by FLIPR assay
- Assay type: cell-based
Please provide measured Kb for the entries that follow.
Report as a plain number; the unit nM is understood.

QUERY: Form field: reported Kb of CCN(C(=O)c1ccccc1OCc1ccccc1Cl)[C@H]1CCC[C@@H](N)C1
RESULT: 72

QUERY: Form field: reported Kb of CCCCN(C(=O)c1ccccc1OCc1ccccc1)[C@@H]1CCC[C@H](N)C1 (racemic)
RESULT: 1560

QUERY: Form field: reported Kb of CCCN(C(=O)c1ccccc1OCc1ccccc1)[C@@H]1CCC[C@H](N)C1 (racemic)
RESULT: 1430

QUERY: Form field: reported Kb of CCN(C(=O)c1ccccc1OCc1cccc(C#N)c1)C1CCCC(N)C1 (racemic)
RESULT: 491
